assay: amyloid nucleation score (Sup35N fusion, yeast selection) (log enrichment); library NNK2; higher = more nucleation; inactive = no reads after selection;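 also: zero at mode of non-aggregating sequences after 7 days selection at 30°C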
# key: entry, value: amyloid nucleation score
Respond with the number and no other words.

Examples with answers:
> print(dat)
         query.sequence  assay.value
1  AFDEVSSFGGFFERCFWIKL         5.91
2         IEDYACMLNREMG         5.36
3        TLKVCSVLIYLYWN        -1.34
4      QDFCSEGCLEDVSSLY        -1.37

Note: attention shifts to another entry.
Give the value of amyloid nucleation score reported for the following: "AWDGIHTMMITYLKFIEKCQ"
-1.31
